- protocol: cytotoxicity in HPDE-C7 cells, cell-based, fluorescence, HTS (AID 430);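 further: cells exposed to compound for 48 hours before viability readout; 0% = vehicle and 100% = reference cytotoxic drug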
- settings: HPDE-C7 pancreatic duct cells viability, at 10 µM, hits give high values
Screen size: about 63,000 compounds; about 1,100 (1.7%) were called active. The list comes from a sample in which actives are over-represented; it also holds close analogues and randomly drawn compounds. Entries with a potency or affinity are not part of this list.
recorded metric: cytotoxicity (%)
# output: bare number, implied unit %

Measured cytotoxicity, `O=C(NCCc1c[nH]c2ccccc12)c1ccc(S(=O)(=O)NCc2ccco2)cc1` : 51.9

Measured cytotoxicity, `CCN(Cc1ccccc1)S(=O)(=O)c1ccc(C(=O)Nc2nnc(-c3ccccc3OC)o2)cc1` : 35.6

Measured cytotoxicity, `Cc1ccccc1C(=O)Nc1nnc(-c2ccc(F)cc2)o1` : 18.7

Measured cytotoxicity, `COc1ccccc1-c1nnc(NC(=O)c2ccc(S(=O)(=O)N(C)Cc3ccccc3)cc2)o1` : 55.9

Measured cytotoxicity, `OCCN1CCN(C(=S)c2ccc(Cl)cc2)CC1` : -26

Measured cytotoxicity, `Cc1nc(CNS(=O)(=O)c2ccc3c(c2)CCCC3)cs1` : -11.4

Measured cytotoxicity, `O=C(Nc1ccccc1)c1ccc(S(=O)(=O)NCc2ccco2)cc1` : -0.2

---

Answer each item with its documented cytotoxicity.
- protocol: cytotoxicity in HPDE-C7 cells, cell-based, fluorescence, HTS (AID 430);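 further: cells exposed to compound for 48 hours before viability readout; 0% = vehicle and 100% = reference cytotoxic drug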
- settings: HPDE-C7 pancreatic duct cells viability, at 10 µM, hits give high values
In all, about 63,000 compounds went through this assay and about 1,100 (1.7%) were called active. This is one part of a sample in which actives are shown more often than they occur. Results with a measured potency or affinity are listed apart.
# output: bare number, implied unit %

Measured cytotoxicity, `Cc1cccc(NC(=O)N2CCC(NC(=O)c3ccccc3C)CC2)c1` : 2.1

Measured cytotoxicity, `COc1ccccc1NC(=O)CN1CCN(Cc2ccccc2)CC1` : 3

Measured cytotoxicity, CC1=C(C(=O)OCc2ccccc2)C(c2ccc(C)o2)C2=C(CCCC2=O)N1 (stereo not drawn) : 54.4

Measured cytotoxicity, `CCOC(=O)c1sc(NC(=O)CSc2nnc(-c3ccco3)n2CC)c(C(=O)OCC)c1C` : 31.5

Measured cytotoxicity, CCCCc1ccc(NC(=O)CSC2=C(C#N)C(c3ccco3)C3=C(CCCC3=O)N2)cc1 (stereo not drawn) : 72.2

Measured cytotoxicity, `Cn1c(=O)c2c(nc(SCC(=O)N3CCCc4ccccc43)n2C)n(C)c1=O` : -17.3

Measured cytotoxicity, CC1=C(C(=O)OC2CCCCCC2)C(c2ccc(C)o2)C2=C(CCCC2=O)N1 (stereo not drawn) : -13.9

Measured cytotoxicity, Cc1ccc(/C(O)=C2\C(=O)C(=O)N(CC(C)O)C2c2ccc(N(C)C)cc2)cc1 (stereo not drawn) : 0

Measured cytotoxicity, `COc1ccc(C(=O)CCN2CCCCCC2)cc1` : 19.8

Measured cytotoxicity, COc1cccc(NC(=O)CSC2=C(C#N)C(c3ccco3)C3=C(CCCC3=O)N2)c1 (stereo not drawn) : 22.1

Measured cytotoxicity, `CCOc1cc(C(=O)N2CCc3cc(OC)c(OC)cc3C2)ccc1OC(F)F` : 82.5

Measured cytotoxicity, `CCn1c(COc2cccc(C)c2)nnc1SCC(=O)N1CCCC1` : -3.1

Measured cytotoxicity, `Cc1ccccc1-n1nnnc1-c1ccccc1` : -2.5

Measured cytotoxicity, CC1(C)CC(=O)C2=C(C1)NC(SCC(=O)Nc1ccccc1)=C(C#N)C2c1ccco1 (stereo not drawn) : -16.1

Measured cytotoxicity, CCC(C)Oc1cccc(C(=O)Nc2ccccc2N2CCOCC2)c1 (stereo not drawn) : 1.7

Measured cytotoxicity, `CN(C)c1ccc(-c2nn3c(-c4ccncc4)nnc3s2)cc1` : -9.1

Measured cytotoxicity, CCN1CCN(C(c2cccs2)C(C)NC(=O)c2ccccc2)CC1 (stereo not drawn) : 2.9

Measured cytotoxicity, `COc1ccc(C(=O)O)cc1F` : -2.5

Measured cytotoxicity, `COc1ccc(-c2oc(/N=C/N3CCOCC3)c(C#N)c2-c2ccc(OC)cc2)cc1` : -7.7

Measured cytotoxicity, CC1=C(C(=O)OC2CCCCC2)C(c2ccc(C)o2)C2=C(CCCC2=O)N1 (stereo not drawn) : -7

Measured cytotoxicity, `COc1cccc(CNC(=O)c2cc3oc4ccccc4c3n2C)c1OC` : 53.5

Measured cytotoxicity, COc1ccc(C(O)C(CN2CCOCC2)c2ccccc2)cc1F (stereo not drawn) : -2.2

Measured cytotoxicity, Cc1nc(NC2=NCN(C3CCCCC3C)CN2)nc2ccccc12 (stereo not drawn) : -2.8

Value source: PubChem BioAssay AID430
